# SYSTEM: F508delCFTR (Homo sapiens, UniProt P13569, DEL508-508)
# Construct: expressed in transfected cells; host or cells: CFBE41o- (human lung derived epithelial cell line), doxycycline-inducible expression
# Sequence (P13569 with tags, fused parts or gaps DEL508-508): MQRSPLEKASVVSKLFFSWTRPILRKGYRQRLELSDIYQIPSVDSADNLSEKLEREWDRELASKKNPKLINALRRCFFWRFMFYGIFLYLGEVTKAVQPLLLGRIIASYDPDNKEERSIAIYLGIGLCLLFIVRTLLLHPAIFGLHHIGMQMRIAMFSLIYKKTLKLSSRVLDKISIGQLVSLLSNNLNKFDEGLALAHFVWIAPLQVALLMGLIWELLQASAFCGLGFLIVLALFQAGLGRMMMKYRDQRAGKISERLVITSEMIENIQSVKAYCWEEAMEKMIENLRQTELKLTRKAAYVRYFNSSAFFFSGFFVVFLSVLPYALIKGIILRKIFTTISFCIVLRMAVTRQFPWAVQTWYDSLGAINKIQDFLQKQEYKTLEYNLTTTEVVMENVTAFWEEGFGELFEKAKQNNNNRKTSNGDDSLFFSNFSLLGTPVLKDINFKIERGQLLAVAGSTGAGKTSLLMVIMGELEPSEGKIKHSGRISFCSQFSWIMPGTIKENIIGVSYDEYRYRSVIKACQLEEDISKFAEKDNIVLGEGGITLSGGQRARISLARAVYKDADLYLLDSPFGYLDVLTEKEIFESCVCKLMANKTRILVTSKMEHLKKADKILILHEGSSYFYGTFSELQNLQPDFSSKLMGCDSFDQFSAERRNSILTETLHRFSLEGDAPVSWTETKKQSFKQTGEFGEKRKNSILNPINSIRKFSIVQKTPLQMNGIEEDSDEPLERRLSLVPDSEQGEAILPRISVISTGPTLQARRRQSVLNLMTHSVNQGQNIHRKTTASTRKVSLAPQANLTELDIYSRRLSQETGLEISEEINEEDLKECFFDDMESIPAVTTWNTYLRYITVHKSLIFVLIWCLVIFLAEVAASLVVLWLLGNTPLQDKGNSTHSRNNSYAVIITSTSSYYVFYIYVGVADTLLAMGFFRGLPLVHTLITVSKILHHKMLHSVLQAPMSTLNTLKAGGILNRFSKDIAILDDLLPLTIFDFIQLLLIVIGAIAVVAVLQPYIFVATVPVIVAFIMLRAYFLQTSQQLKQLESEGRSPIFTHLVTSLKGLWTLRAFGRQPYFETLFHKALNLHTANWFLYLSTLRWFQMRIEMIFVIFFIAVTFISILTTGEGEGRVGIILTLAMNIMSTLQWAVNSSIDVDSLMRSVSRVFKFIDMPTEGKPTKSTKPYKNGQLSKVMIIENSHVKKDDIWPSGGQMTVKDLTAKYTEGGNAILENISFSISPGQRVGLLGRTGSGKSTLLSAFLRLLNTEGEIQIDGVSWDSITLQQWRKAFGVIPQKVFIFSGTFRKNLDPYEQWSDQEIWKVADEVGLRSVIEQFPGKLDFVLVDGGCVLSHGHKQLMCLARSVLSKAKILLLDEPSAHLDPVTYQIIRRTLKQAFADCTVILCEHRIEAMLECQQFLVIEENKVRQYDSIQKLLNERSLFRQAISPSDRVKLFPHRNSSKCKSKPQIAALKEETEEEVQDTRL
# EXPERIMENT_NOTES: Cell Surface Expression-Horse Radish Peroxidase (CSE-HRP) assay
# Format: cell-based
# COND: CFBE41o-F508delCFTR-HRP cells; test compound without co-corrector; 18-24 hours at 33° C.; read-out: EC50 (without co-corrector)
Measured EC50, listed per entry.
REPORTED_PROPERTY: EC50

1. COc1ncc(C(F)(F)F)cc1CO[C@H]1[C@H](C(C)(C)C)[C@@H](C(=O)O)N(C(=O)[C@@H]2CCCCO2)[C@H]1c1ccccc1-c1cnn(C)c1 [Example 193]: 1 to 10 µM
2. COc1ncc(C2CCC2)cc1CO[C@H]1[C@H](C(C)(C)C)[C@@H](C(=O)O)N(C(=O)[C@@H]2CCCO2)[C@H]1c1ccccc1C1CC1 [Example 149]: 1 to 10 µM
3. COc1ncc(C(F)(F)F)cc1CO[C@H]1[C@H](C(C)(C)C)[C@@H](C(=O)O)N(C(=O)OC(C)C)[C@H]1c1ccccc1OC(C)C [Example 105]: < 1 µM
4. COc1ncc(C(F)(F)F)cc1CO[C@H]1[C@H](C(C)(C)C)[C@@H](C(=O)O)N(C(=O)C2=CCCCO2)[C@H]1c1ccccc1C [Example 222]: 1 to 10 µM
5. COc1ccc(C(F)(F)F)cc1CO[C@@H]1[C@@H](C(C)(C)C)[C@H](C(=O)O)N(C(=O)[C@@H]2CCC[C@@H](OC)C2)[C@@H]1c1ccccc1 (mixture of isomers) [Example 29]: 1 to 10 µM
6. COc1ncc(N2CCCCC2)cc1CO[C@H]1[C@H](C(C)(C)C)[C@@H](C(=O)O)N(C(=O)OC(C)C)[C@H]1c1ccccc1 [Example 81]: 1 to 10 µM
7. COc1ccc(C(F)(F)F)cc1CO[C@H]1[C@H](C(C)(C)C)[C@@H](C(=O)NS(=O)(=O)N(C)C)N(C(=O)C2CCCCC2)[C@H]1c1ccccc1 [Example 25]: > 10 µM
8. CC(C)Oc1ncccc1[C@H]1[C@@H](OCc2cc3cc(Br)ccc3o2)[C@H](C(C)(C)C)[C@@H](C(=O)O)N1C(=O)[C@@H]1CCCCO1 [Example 289]: 1 to 10 µM
9. COc1cc(C(F)(F)F)ccc1CO[C@H]1[C@H](C(C)(C)C)[C@@H](C(=O)O)N(C(=O)[C@H]2CCC[C@H](OC)C2)[C@H]1c1ccccc1 [Example 32]: 1 to 10 µM
10. COc1nc2ccccc2cc1CO[C@H]1[C@H](C(C)(C)C)[C@@H](C(=O)O)N(C(=O)OC(C)C)[C@H]1c1ccccc1Br [Example 137]: 1 to 10 µM
11. COc1ncc(C2CC3CCC2C3)cc1CO[C@H]1[C@H](C(C)(C)C)[C@@H](C(=O)O)N(C(=O)C2CCCCC2)[C@H]1c1ccccc1 (stereo partly drawn) [Example 55]: 1 to 10 µM
12. COc1ncc(C2=CCOCC2)cc1CO[C@H]1[C@H](C(C)(C)C)[C@@H](C(=O)O)N(C(=O)OC(C)C)[C@H]1c1ccccc1 [Example 69]: 1 to 10 µM
